# TESTED_ON: full-length SARM1 (FL-SARM1) (Homo sapiens, UniProt Q6SZW1)
# Sequence (Q6SZW1 28-724): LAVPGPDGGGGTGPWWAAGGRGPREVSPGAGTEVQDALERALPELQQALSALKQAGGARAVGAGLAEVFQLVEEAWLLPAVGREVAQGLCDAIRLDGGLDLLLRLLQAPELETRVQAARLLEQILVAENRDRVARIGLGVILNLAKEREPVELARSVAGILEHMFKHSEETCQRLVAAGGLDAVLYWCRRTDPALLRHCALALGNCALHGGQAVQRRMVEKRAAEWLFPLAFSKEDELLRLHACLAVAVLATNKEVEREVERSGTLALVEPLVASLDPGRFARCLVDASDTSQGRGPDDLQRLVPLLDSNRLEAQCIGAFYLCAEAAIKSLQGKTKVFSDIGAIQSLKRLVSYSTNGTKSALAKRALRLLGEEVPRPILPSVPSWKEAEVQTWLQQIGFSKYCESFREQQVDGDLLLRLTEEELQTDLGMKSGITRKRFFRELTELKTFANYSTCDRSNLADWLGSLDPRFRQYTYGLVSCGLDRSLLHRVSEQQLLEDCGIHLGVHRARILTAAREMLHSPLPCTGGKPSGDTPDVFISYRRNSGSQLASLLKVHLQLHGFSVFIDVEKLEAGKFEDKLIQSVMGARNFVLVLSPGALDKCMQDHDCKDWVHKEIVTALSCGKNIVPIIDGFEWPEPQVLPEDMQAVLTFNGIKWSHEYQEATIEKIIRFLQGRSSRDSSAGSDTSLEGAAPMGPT
# TEST_SUMMARY: FL-SARM1 cellular lysate assay (NAD/NADH-Glo detection of remaining NAD+, NMN-activated)
# CONDITION_DESCRIPTION: Activity (μM) (IC50), 11 point curve
MEASUREMENT_TYPE: IC50 (µM)
Please respond with the number in µM and leave the unit unwritten.

The examples below pair each entry with its known result.
Cc1nnc(CN2[C@@H](C(=O)Nc3ccc(C)c(-c4ncc(F)cn4)c3)C[C@H]3C[C@H]32)o1 | 18
Cc1ccc(NC(=O)N2CC(C)C2)cc1-c1ncc(F)cn1 | 20
N#CCc1ccc(NC(=O)[C@@H]2CC2(F)F)cc1-c1ccccn1 | 5
Cc1ccc(NC(=O)C2CCC(=O)N2c2ccccn2)cc1-c1ncc(F)cn1 (racemic) | 17
Cc1ccc(NC(=O)N2CCC3CC3CC2)cc1-c1ncc(F)cn1 (stereo not drawn) | 1.2

# input for lookup
Sample Cc1ccc(NC(=O)CN2C(=O)CCOc3ccccc32)cc1-c1ccccn1 ; IC50 observed: 1.9

###

# TESTED_ON: full-length SARM1 (FL-SARM1) (Homo sapiens, UniProt Q6SZW1)
# TEST_SUMMARY: FL-SARM1 cellular lysate assay (NAD/NADH-Glo detection of remaining NAD+, NMN-activated)
# CONDITION_DESCRIPTION: Activity (μM) (IC50), 11 point curve
// classify: if (IC50 < 1 µM) T else F

O=C(Nc1ccc(C(F)(F)F)c(-c2ccccn2)c1)[C@@H]1CC1(F)F [Example 150] | F
Cc1ccc(NC(=O)N2CCC[C@@H]2c2ccccc2)cc1-c1ccccn1 [Example 95] | F
Cc1c(C#N)cc(NC(=O)N2C3CCCC2C3)cc1-c1ccccn1 [Example 83] | F

-- ask A record lists Cc1ccc(NC(=O)N2C3CC2CN(C2CCC2)C3)cc1-c1ccccn1 [Example 6] . Is its IC50 below 1 µM?
-- reply F

-- ask A record lists CC1CCCCCN1C(=O)Nc1ccc(C(F)(F)F)c(-c2ncc(F)cn2)c1 (racemic) [Example 312] . Is its IC50 below 1 µM?
-- reply F

-- ask A record lists Cc1ccc(NC(=O)[C@@H]2C[C@H]3CC[C@@H]2C3)cc1-c1ccccn1 (single isomer, unassigned) [Example 138] . Is its IC50 below 1 µM?
-- reply T

-- ask A record lists Cc1ccc(NC(=O)N2CCCC3C2C3C(F)(F)F)cc1-c1ccccn1 (mixture of isomers) [Example 98] . Is its IC50 below 1 µM?
-- reply F

-- ask A record lists N#CCc1ccc(NC(=O)N2C3CCCC2C3)cc1-c1ccccn1 [Example 19] . Is its IC50 below 1 µM?
-- reply T

-- ask A record lists CCO[C@@H]1CC2C[C@H](C1)N2C(=O)Nc1ccc(C)c(-c2ccccn2)c1 [Example 84] . Is its IC50 below 1 µM?
-- reply F

-- ask A record lists Cc1ccc(NC(=O)N2CC3CC3(C(F)(F)F)C2)cc1-c1ccccn1 (centres unmarked) [Example 97] . Is its IC50 below 1 µM?
-- reply F

-- ask A record lists CO[C@@H]1C[C@@H]2C[C@H](C1)N2C(=O)Nc1ccc(C)c(-c2ccccn2)c1 [Example 41] . Is its IC50 below 1 µM?
-- reply T

-- ask A record lists Cc1ccc(NC(=O)C2C3CCC2CC3)cc1-c1cccnn1 (centres unmarked) [Example 103] . Is its IC50 below 1 µM?
-- reply T

-- ask A record lists Cc1ccc(NC(=O)N2C3CCCC2C3)cc1-c1nccc(C#N)n1 [Example 67] . Is its IC50 below 1 µM?
-- reply T
